- targetOrTestSystem: SMYD3 (Homo sapiens (Human), UniProt Q9H7B4)
- Sequence (Q9H7B4 whole entry): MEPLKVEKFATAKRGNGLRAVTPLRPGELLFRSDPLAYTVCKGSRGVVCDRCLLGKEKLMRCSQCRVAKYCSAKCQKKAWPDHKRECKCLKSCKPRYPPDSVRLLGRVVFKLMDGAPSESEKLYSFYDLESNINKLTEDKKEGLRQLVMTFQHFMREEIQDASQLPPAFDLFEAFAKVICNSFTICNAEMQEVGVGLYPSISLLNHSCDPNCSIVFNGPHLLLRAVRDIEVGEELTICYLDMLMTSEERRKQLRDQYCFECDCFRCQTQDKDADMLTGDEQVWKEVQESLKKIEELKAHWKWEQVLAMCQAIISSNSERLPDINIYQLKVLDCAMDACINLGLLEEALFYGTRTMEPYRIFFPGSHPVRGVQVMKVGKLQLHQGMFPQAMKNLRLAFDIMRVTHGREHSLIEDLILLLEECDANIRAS
- testSummary: SMYD3 cell assay (Trimethyl-MEKK2 In-Cell Western in 293T/17 cells)
- Type: cell-based
- conditions: read-out: SMYD3 Cell IC50*
measurementType: log10(IC50) (log10 of the value in nM)
Please interpret these as log10 of IC50 where IC50 is in nM.

Observe how each entry below is paired with its result.
{"columns": ["compound", "log10(IC50)"],
 "data": [
  ["C[C@H]1CN(S(=O)(=O)[C@H]2CC[C@@H](N)CC2)CC[C@H]1NC(=O)c1cc(C2CC2)on1 [compound 873]", 2.23],
  ["CN(C)[C@H]1CC[C@H](S(=O)(=O)N2[C@@H]3CC[C@H]2C[C@@H](NC(=O)c2cc(C4CC4)on2)C3)CC1 [compound 807]", 1.93],
  ["O=C(N[C@H]1C[C@H]2CC[C@@H](C1)N2S(=O)(=O)N1CCC(NCc2ccccc2)CC1)c1cc(C2CC2)on1 [compound 810]", 1.86],
  ["COCCNC1CCN(S(=O)(=O)N2CC[C@H](NC(=O)c3cc(C4CC4)on3)C[C@@H]2C)CC1 [compound 861]", 2.01],
  ["O=C(N[C@H]1C[C@H]2CC[C@@H](C1)N2S(=O)(=O)N1CCC(NCc2ccc(F)cc2)CC1)c1cc(C2CC2)on1 [compound 848]", 2.18],
  ["CCc1cc(C(=O)N[C@H]2C[C@H]3CC[C@@H](C2)N3S(=O)(=O)[C@H]2CC[C@@H](NCCO)CC2)no1 [compound 833]", 1.86]
]}

The compound CC(C)CN1CCC2(CC1)CN(S(=O)(=O)N1[C@@H]3CC[C@H]1C[C@@H](NC(=O)c1cc(C4CC4)on1)C3)C2 [compound 818] showed log10(IC50) equal to 1.74

The measured log10(IC50) associated with C[C@H]1C[C@@H](NC(=O)c2cc(C3CC3)on2)CCN1S(=O)(=O)N1CCNC[C@H]1c1ccccc1 [compound 960] reads 3.13

---

Reported IC50 values for a set of molecules
- targetOrTestSystem: SMYD3 (Homo sapiens (Human), UniProt Q9H7B4)
- testSummary: SMYD3 cell assay (Trimethyl-MEKK2 In-Cell Western in 293T/17 cells)
- Assay type: cell-based
- conditions: Table 2A; read-out: SMYD3 Cell IC50
Please respond with the number in nM and leave the unit unwritten.

Please review the entries below; each comes with its answer.
{"columns": ["testSmiles", "unitDescriptor", "IC50"],
 "data": [
  ["O=C(N[C@H]1C[C@H]2CC[C@@H](C1)N2S(=O)(=O)CC1CCN(Cc2ccccc2)CC1)c1cc(C2CC2)on1", "nM", 58],
  ["C[C@H]1CN(S(=O)(=O)N2CCC(N)CC2)CC[C@H]1NC(=O)c1cc(C2CC2)on1", "nM", 113],
  ["C[C@H]1C[C@@H](NC(=O)c2cc(C3CC3)on2)CCN1S(=O)(=O)CCCCN", "nM", 94.1],
  ["C[C@H]1C[C@@H](NC(=O)c2cc(C3CC3)on2)CCN1S(=O)(=O)CC1CCN(C)CC1", "nM", 30.8],
  ["CNCCNCCS(=O)(=O)N1[C@@H]2CC[C@H]1C[C@@H](NC(=O)c1cc(C3CC3)on1)C2", "nM", 302],
  ["CC(C)NC1CCN(S(=O)(=O)N2CC[C@H](NC(=O)c3cc(C4CC4)on3)C[C@@H]2C)CC1", "nM", 143],
  ["C[C@H]1CNCCN1S(=O)(=O)N1CC[C@H](NC(=O)c2cc(C3CC3)on2)C[C@@H]1C", "nM", 284],
  ["O=C(N[C@H]1C[C@H]2CC[C@@H](C1)N2S(=O)(=O)CC1CCN(CCCO)CC1)c1cc(C2CC2)on1", "nM", 27.7]
]}

The molecule identified as `CN(C)CCCS(=O)(=O)N1[C@@H]2CC[C@H]1C[C@@H](NC(=O)c1cc(C3CC3)on1)C2` registered its IC50 at 147

Field IC50 (entry `C[C@H]1C[C@@H](NC(=O)c2cc(C3CC3)on2)CCN1S(=O)(=O)N1C[C@H]2C[C@@H]1CN2C` ) reads 157

Data credit: patent US10577363B2
